Reference source for all entries: paper PMC10397247

Biological target: T1, 4H_APH
T1 chain: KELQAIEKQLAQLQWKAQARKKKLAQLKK
Experiment: two-hybrid library CCmax;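 further: natural log of median RNA to DNA barcode read ratio; higher means stronger binding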
Measure name: interaction score

The cases that follow already have their interaction score on record.
>>> value_observed("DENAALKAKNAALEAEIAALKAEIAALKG [4H1930-AA]")
-1.06
>>> value_observed("DKIAALKAKNAALEAKNAALKAEIAALEG [4H3001-AA]")
-2
>>> value_observed("DKNAALKAEIAALEAEIAALEAENAALEG [4H3587-AA]")
-1.77
>>> value_observed("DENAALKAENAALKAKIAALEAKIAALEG [4H1765-AA]")
-2.38
>>> value_observed("DEIAALEAEIAALEAKNAALKAEIAALKG [4H58-AA]")
-1.68
>>> value_observed("DEIAALEAKNAALKAENAALEAEIAALEG [4H465-AA]")
-1.84
>>> value_observed("DEIAALEAKNAALKAEIAALEAENAALKG [4H452-AA]")
-1.91
>>> value_observed("DEIAALEAKIAALKAKIAALEAENAALEG [4H355-AA]")
-0.88
>>> value_observed("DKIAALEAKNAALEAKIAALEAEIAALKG [4H2466-AA]")
-0.895
>>> value_observed("DEIAALEAKNAALKAKIAALEAKIAALKG [4H486-AA]")
-1.97

(1) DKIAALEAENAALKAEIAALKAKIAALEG [4H2253-AA]
(2) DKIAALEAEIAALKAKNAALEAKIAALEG [4H2165-AA]
In terms of reported interaction score, does 1 or 2 have the smaller number? Answer by stating the label of the chosen item.
2
(2: -1.76, 1: -1.1)

(I) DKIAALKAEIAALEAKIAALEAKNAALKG [4H2600-AA]
(II) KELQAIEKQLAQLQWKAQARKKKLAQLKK [4H_APH]
Field: lower interaction score | Options: I / II Refer to your chosen item by its label in the answer.
II
